- PROCEDURE SUMMARY: RBC haemolysis induction
- DETAILS: human, 2% red blood cell suspension
OBSERVABLE: hemolysis at 30 min, 40 μg/mL (%)
Give a bare numeral; the unit % is implied.

Give the measured hemolysis at 30 min, 40 μg/mL of Oc1ccc(/C=C/c2cc(O)cc(O)c2)cc1 .
8.95

====

- PROCEDURE SUMMARY: RBC haemolysis induction
- DETAILS: human, 2% red blood cell suspension
OBSERVABLE: hemolysis at 30 min, 20 μg/mL (%)
Give a bare numeral; the unit % is implied.

Give the measured hemolysis at 30 min, 20 μg/mL of Oc1ccc(/C=C/c2cc(O)cc(O)c2)cc1 .
8.58

====

- PROCEDURE SUMMARY: RBC haemolysis induction
- DETAILS: human, 2% red blood cell suspension
OBSERVABLE: hemolysis at 30 min, 50 μg/mL
Answer with the number, then the unit.

COMPOUND: O=c1c(O)c(-c2ccc(O)cc2O)oc2cc(O)cc(O)c12 [Morin, 2’,3,4’,5,7-pentahydroxyflavonone]
hemolysis at 30 min, 50 μg/mL: 9.39%

Field: next compound
Give the measured hemolysis at 30 min, 50 μg/mL of O=c1c(O)c(-c2ccc(O)c(O)c2)oc2cc(O)cc(O)c12 [Quercetin, quercetin] .
8.85%

====

- PROCEDURE SUMMARY: RBC haemolysis induction
- DETAILS: human, 2% red blood cell suspension
OBSERVABLE: hemolysis at 30 min, 150 μg/mL (%)
Give a bare numeral; the unit % is implied.

Give the measured hemolysis at 30 min, 150 μg/mL of O=c1c(O)c(-c2ccc(O)cc2O)oc2cc(O)cc(O)c12 [Morin, 2’,3,4’,5,7-pentahydroxyflavonone] .
10.2

====

Item-by-item account of hemolysis at 30 min, 100 μg/mL
- PROCEDURE SUMMARY: RBC haemolysis induction
- DETAILS: human, 2% red blood cell suspension
Give a bare numeral; the unit % is implied.

COMPOUND: O=c1c(O)c(-c2ccc(O)c(O)c2)oc2cc(O)cc(O)c12 [Quercetin, quercetin]
READOUT UNITS: %
hemolysis at 30 min, 100 μg/mL: 8.74

Give the measured hemolysis at 30 min, 100 μg/mL of O=c1c(O)c(-c2ccc(O)cc2O)oc2cc(O)cc(O)c12 [Morin, 2’,3,4’,5,7-pentahydroxyflavonone] .
9.82
